Known pIC50 of a selection of compounds
test.method.notes: Inhibition of serum-stimulated proliferation of mouse ERBB2 transfected NIH3T3 cell line after 24 hrs
pIC50 is defined as minus the log10 of a concentration measured in mol/L.

Solved entries (count: 2):
CN(C(=O)N(CCCl)N=O)c1ccc2ncnc(Nc3cccc(Cl)c3)c2c1 | 6.17
CNc1ccc2ncnc(Nc3cccc(Br)c3)c2c1 | 6.77

Now look at this one.
Q) Using the record for O=NN(CCCl)C(=O)Nc1ccc2ncnc(Nc3cccc(Br)c3)c2c1 , report its pIC50.
A) 5.94

----------
test.method.notes: Inhibition of serum-stimulated proliferation of mouse ERBB2 transfected NIH3T3 cell line after 24 hrs
measurement.name: pIC50
pIC50 is defined as minus the log10 of a concentration measured in mol/L.

Solved entries (count: 4):
Cc1cccc(Nc2ncnc3ccc(N)cc23)c1 | 5.19
Nc1ccc2ncnc(Nc3cccc(Cl)c3)c2c1 | 5.48
Nc1ccc2ncnc(Nc3cccc(Br)c3)c2c1 | 6.17
O=C(NCCCl)Nc1ccc2ncnc(Nc3cccc(Br)c3)c2c1 | 5.75

Q) Using the record for Cc1cccc(Nc2ncnc3ccc(N(C)C(=O)N(CCCl)N=O)cc23)c1 , report its pIC50.
A) 5.16

Q) Using the record for CNc1ccc2ncnc(Nc3cccc(C)c3)c2c1 , report its pIC50.
A) 5.68

All values here come from BindingDB's records for doi:10.1021/jm0600390.
